- ASSAY_PROTOCOL: In vivo pharmacokinetics after intragastric administration in mice
- CONDITION_SET: male, ICR, mouse, po, single intragastric administration, 20 mg/kg, plasma
- Experimental: Male 1CR mice were divided into different groups with 3 mice in each group, and single intragastric administration was conducted for each group. The compounds were each formulated with 10% DMSO/10% Solutol/80% ([…]) to reach an appropriate concentration and then administered intragastrically at 20 mg/kg. […] The concentration of the compound in the plasma was quantitatively detected by an LC-MS/MS method.
PROPERTY: AUC(0-t)

1) Cc1nc(NC2CCN(C(=O)O[C@H]3CCN(C(=O)/C=C/CN(C)C)C3)CC2)c2ncc(C(C)C)n2n1 : 3100 ng·h/mL
2) Cc1nc(NC2CCN(C(=O)O[C@H]3CCN(C(=O)/C=C/CN(C)C)C3)CC2)n2ncc(C(C)C)c2n1 : 6260 ng·h/mL

====

- System: HCC70 cells
- ASSAY_PROTOCOL: Inhibition of cell proliferation, CellTiter-Glo, HCC70
- Format: cell-based
- CONDITION_SET: Homo sapiens, HCC70, 72 h, Efficacy Example 2 (Table 2), 72 h incubation
PROPERTY: IC50 (nM)

1. CC(C)c1cn2c(C(C)C)cnc2c(NC2CCN(C(=O)O[C@H]3CCN(C(=O)/C=C/CN(C)C)C3)CC2)n1 : 419
2. CC(C)n1cnc2c(NC3CCN(C(=O)O[C@H]4CCN(C(=O)/C=C/CN(C)C)C4)CC3)ccnc21 : 570
3. CC(C)n1cnc2c(NC3CCN(C(=O)O[C@H]4CCN(C(=O)/C=C/CN(C)C)C4)CC3)nc(-c3cn[nH]c3)nc21 : 405
4. Cc1nc(NC2CCN(C(=O)O[C@H]3CCN(C(=O)/C=C/CN(C)C)C3)CC2)n2ncc(C(C)C)c2n1 : 175
5. CC(C)n1cnc2c(NC3CCN(C(=O)O[C@H]4CCN(C(=O)/C=C/CN(C)C)C4)CC3)nc(CO)nc21 : 252
6. CC#CC(=O)N1CC[C@@H](OC(=O)N2CCC(Nc3cc(C)nc4c3ncn4C(C)C)CC2)C1 : 97.4
7. Cc1nc(NC2CCN(C(=O)O[C@H]3CCN(C(=O)/C=C/CN(C)C)C3)CC2)c2ncn(C(C)C)c2n1 : 181

====

- EXPERIMENTAL_SYSTEM: CDK7/Cyclin H/MAT1 (Homo sapiens)
- Sequence (P50613 whole entry): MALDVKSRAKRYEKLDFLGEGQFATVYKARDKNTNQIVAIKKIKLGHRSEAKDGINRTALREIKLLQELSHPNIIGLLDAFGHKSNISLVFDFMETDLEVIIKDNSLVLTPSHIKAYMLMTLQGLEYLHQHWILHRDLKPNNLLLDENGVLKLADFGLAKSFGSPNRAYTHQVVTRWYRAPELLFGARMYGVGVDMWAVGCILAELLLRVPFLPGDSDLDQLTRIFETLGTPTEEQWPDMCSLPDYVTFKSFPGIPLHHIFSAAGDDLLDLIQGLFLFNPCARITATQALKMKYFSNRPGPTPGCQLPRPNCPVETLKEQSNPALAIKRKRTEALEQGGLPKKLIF
- Sequence (P51946 whole entry partner): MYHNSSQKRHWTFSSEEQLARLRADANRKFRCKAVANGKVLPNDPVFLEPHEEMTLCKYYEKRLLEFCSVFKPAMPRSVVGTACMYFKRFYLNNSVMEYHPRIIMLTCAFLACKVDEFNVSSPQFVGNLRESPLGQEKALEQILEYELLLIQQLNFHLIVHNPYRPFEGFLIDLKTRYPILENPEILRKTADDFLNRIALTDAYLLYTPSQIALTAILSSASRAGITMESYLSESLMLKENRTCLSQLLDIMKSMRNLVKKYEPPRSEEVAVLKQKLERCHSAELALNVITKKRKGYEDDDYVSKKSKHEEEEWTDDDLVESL
- Sequence (P51948 whole entry partner): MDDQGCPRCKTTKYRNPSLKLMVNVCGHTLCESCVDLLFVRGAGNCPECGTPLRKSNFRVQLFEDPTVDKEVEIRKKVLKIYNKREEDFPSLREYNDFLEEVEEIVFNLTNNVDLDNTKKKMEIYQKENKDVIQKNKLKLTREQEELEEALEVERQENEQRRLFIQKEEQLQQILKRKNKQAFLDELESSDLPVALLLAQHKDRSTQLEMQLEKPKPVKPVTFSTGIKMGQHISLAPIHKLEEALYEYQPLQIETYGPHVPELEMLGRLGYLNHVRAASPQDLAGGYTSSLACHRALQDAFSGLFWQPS
- ASSAY_PROTOCOL: CDK7 inhibition, mobility shift assay
Listed compounds paired with reported IC50
PROPERTY: IC50 (nM)

1. Cc1cc(NC2CCN(C(=O)O[C@H]3CCN(C(=O)/C=C/CN(C)C)C3)CC2)c2ncc(C(C)C)n2n1 [SZ-015273] : 44.5
2. Cc1nc(NC2CCN(C(=O)O[C@H]3CCN(C(=O)/C=C/CN(C)C)C3)CC2)c2ncc(C(C)C)n2n1 [SZ-0015268] : 23.6
3. Cc1cc2c(ncn2C(C)C)c(NC2CCN(C(=O)O[C@H]3CCN(C(=O)/C=C/CN(C)C)C3)CC2)n1 [SZ-015272] : 278
4. Cc1nc(NC2CCN(C(=O)O[C@H]3CCN(C(=O)/C=C/CN(C)C)C3)CC2)n2ncc(C(C)C)c2n1 [SZ-015256] : 54.3
5. Cc1cn2c(C(C)C)cnc2c(NC2CCN(C(=O)O[C@H]3CCN(C(=O)/C=C/CN(C)C)C3)CC2)n1 [SZ-015274] : 197
6. Cc1cc(NC2CCN(C(=O)O[C@H]3CCN(C(=O)/C=C/CN(C)C)C3)CC2)c2ncn(C(C)C)c2n1 [SZ-015095] : 128
